Details: in ethanol, 310.65 K

SMILES REPRESENTATION: Cc1cc(C)[nH]n1
solubility (mole fraction): 0.205

====

Settings: in acetone, 295.65 K
ATTRIBUTE MEASURED: solubility (mole fraction)

SMILES REPRESENTATION: Cc1cc(C)[nH]n1
MEASUREMENT: 0.105

====

Conditions: in ethanol, 313.15 K

SMILES REPRESENTATION: Cc1cc(C)[nH]n1
solubility (mole fraction): 0.217

====

Conditions: in acetone, 288.15 K
ATTRIBUTE MEASURED: solubility (mole fraction)

SMILES REPRESENTATION: Cc1cc(C)[nH]n1
ATTRIBUTE MEASURED: solubility (mole fraction)
MEASUREMENT: 0.0757

====

Conditions: in isopropanol, 313.15 K

SMILES REPRESENTATION: Cc1cc(C)[nH]n1
solubility (mole fraction): 0.211

====

Conditions: in ethanol, 308.15 K
ATTRIBUTE MEASURED: solubility (mole fraction)

SMILES REPRESENTATION: Cc1cc(C)[nH]n1
MEASUREMENT: 0.196

====

Details: in ethyl acetate, 283.15 K

SMILES REPRESENTATION: Cc1cc(C)[nH]n1
solubility (mole fraction): 0.0508

====

Details: in isopropanol, 305.65 K

SMILES REPRESENTATION: Cc1cc(C)[nH]n1
solubility (mole fraction): 0.18

====

Settings: in n-propanol, 298.15 K

SMILES REPRESENTATION: Cc1cc(C)[nH]n1
solubility (mole fraction): 0.167

====

Settings: in n-propanol, 288.15 K
ATTRIBUTE MEASURED: solubility (mole fraction)

SMILES REPRESENTATION: Cc1cc(C)[nH]n1
MEASUREMENT: 0.137

====

Conditions: in n-propanol, 295.65 K

SMILES REPRESENTATION: Cc1cc(C)[nH]n1
solubility (mole fraction): 0.16

====

Settings: in n-butanol, 288.15 K

SMILES REPRESENTATION: Cc1cc(C)[nH]n1
solubility (mole fraction): 0.149

====

Settings: in toluene, 310.65 K

SMILES REPRESENTATION: Cc1cc(C)[nH]n1
solubility (mole fraction): 0.151

====

Settings: in ethyl acetate, 310.65 K
ATTRIBUTE MEASURED: solubility (mole fraction)

SMILES REPRESENTATION: Cc1cc(C)[nH]n1
ATTRIBUTE MEASURED: solubility (mole fraction)
MEASUREMENT: 0.199

====

Details: in methanol, 305.65 K

SMILES REPRESENTATION: Cc1cc(C)[nH]n1
solubility (mole fraction): 0.165

====

Details: in ethanol, 290.65 K

SMILES REPRESENTATION: Cc1cc(C)[nH]n1
solubility (mole fraction): 0.14

====

Conditions: in toluene, 290.65 K
ATTRIBUTE MEASURED: solubility (mole fraction)

SMILES REPRESENTATION: Cc1cc(C)[nH]n1
MEASUREMENT: 0.0517

====

Settings: in acetonitrile, 283.15 K
ATTRIBUTE MEASURED: solubility (mole fraction)

SMILES REPRESENTATION: Cc1cc(C)[nH]n1
MEASUREMENT: 0.0276

====

Conditions: in acetone, 303.15 K

SMILES REPRESENTATION: Cc1cc(C)[nH]n1
solubility (mole fraction): 0.143

====

Settings: in acetonitrile, 313.15 K

SMILES REPRESENTATION: Cc1cc(C)[nH]n1
solubility (mole fraction): 0.116

====

Conditions: in toluene, 298.15 K
ATTRIBUTE MEASURED: solubility (mole fraction)

SMILES REPRESENTATION: Cc1cc(C)[nH]n1
MEASUREMENT: 0.0769

====

Details: in n-butanol, 310.65 K
ATTRIBUTE MEASURED: solubility (mole fraction)

SMILES REPRESENTATION: Cc1cc(C)[nH]n1
MEASUREMENT: 0.251

====

Conditions: in n-butanol, 300.65 K

SMILES REPRESENTATION: Cc1cc(C)[nH]n1
solubility (mole fraction): 0.199

====

Settings: in ethanol, 298.15 K
ATTRIBUTE MEASURED: solubility (mole fraction)

SMILES REPRESENTATION: Cc1cc(C)[nH]n1
MEASUREMENT: 0.163
